Data provenance is ChEMBL document CHEMBL3046553.

We begin with a simple list: items and their reported AUC(0-inf).
Assay: AUC (0 to infinity) in New Zealand Oryctolagus cuniculus (rabbit) at 2 mg/kg, iv
Assay type: ADME, organism-based
Set-up: time infinity, dose 2 mg/kg, route intravenous
Conditions: plasma
# output: bare number, implied unit ng·h/mL

{"compound": "COc1ccc(S(=O)(=O)N2Cc3[nH]c4ccccc4c3C[C@@H]2C(N)=O)cc1", "AUC(0-inf) / ng·h/mL": 568}

Please turn your attention to the following entry.
**Query** Quick one: AUC(0-inf) for COc1ccc(S(=O)(=O)N2Cc3[nH]c4ccccc4c3C[C@H]2C(N)=O)cc1 [S007-1558 (S)] ?
**Result** 436
